assay: growth inhibition of DIPG cells – cell-based, MIPE4.0 library, CellTiter-Glo luminescence, qHTS (AID 1347066); settings: SU-DIPG-VI viability, CellTiter-Glo ATP luminescence;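 note: cells exposed to compound for 48 hours before readout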
Results filed as inconclusive are left out. Calls of active or inactive are those of the source. No cut-off is given here; in the data, nearly all actives have AC50 up to about 30 µM.
Choose one outcome from this list and give only that: Y = active, N = inactive

Q: Given CCN(C(=O)c1c(O)c2c(Cl)cccc2n(C)c1=O)c1ccccc1 , state the outcome it received in this test.
A: N

Q: Given Nc1ccccc1NC(=O)c1ccc(CNC(=O)OCc2cccnc2)cc1 , state the outcome it received in this test.
A: Y

Q: What classification did Cc1cnc(-c2cc(N3CCN(C(=O)CCS(C)(=O)=O)CC3)ncc2Cl)c(C)c1 end up with in this test?
A: N

Q: Query: recorded result category for CC[C@H](C)n1cc(C)c2c(C(=O)NCc3c(C)cc(C)[nH]c3=O)cc(-c3ccc(N4CCNCC4)nc3)cc21 in this test
A: Y

Q: // outcome(item) with item = O=C(c1cc(Cc2n[nH]c(=O)c3ccccc23)ccc1F)N1CCN(C(=O)C2CC2)CC1
A: N

Q: # lookup: test call for O=c1c(-c2ccc(O)cc2)coc2cc(O[C@@H]3O[C@H](CO)[C@@H](O)[C@H](O)[C@H]3O)ccc12
A: N

Q: Hi, sorry to bother you, what did the test record for c1ccc2c(Oc3nc(Nc4ccc(N5CCOCC5)cc4)c4ncn(C5CCCCC5)c4n3)cccc2c1 ?
A: N

Q: Hi team, can someone confirm the assay call for CC1(C)CCC(c2ccc(Cl)cc2)=C(CN2CCN(c3ccc(C(=O)NS(=O)(=O)c4ccc(N[C@H](CCN5CCOCC5)CSc5ccccc5)c(S(=O)(=O)C(F)(F)F)c4)cc3)CC2)C1 ?
A: Y

====

Would you mind telling me the reported z-score of each entry?
assay: MELAS cybrid and Rieske KO viability enhancers – cell-based, MELAS cybrids, Rieske KO mouse fibroblasts, CellTiter-Glo, primary screen (AID 1508586); settings: Rieske KO mouse fibroblast survival, low glucose, CellTiter-Glo 72 h;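 note: z relative to plate mean and SD of compound and empty wells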
Kindly provide the number alone.

Q: Give the reported value of z-score for this record: COc1cc2c(Oc3ccc(NC(=O)C4(C(=O)Nc5ccc(F)cc5)CC4)cc3F)ccnc2cc1OCCCN1CCOCC1
A: 0.0525

Q: Specify measured z-score for CN(C(Cc1ccc(OS(=O)(=O)c2cccc3cnccc23)cc1)C(=O)N1CCN(c2ccccc2)CC1)S(=O)(=O)c1cccc2cnccc12 (configuration not stated) .
A: -1.42

Q: Note down z-score recorded for CC1(C)Cc2c(-c3ccccc3)c(-c3ccc(Cl)cc3)c(CC(=O)O)n2C1
A: 1.11

Q: Identify the reported z-score for the following entry. c1ccc(CNc2nc(NCc3ccccc3)c3ccccc3n2)cc1
A: -0.855

Q: Read the entry CC(N)C1CCC(C(=O)Nc2ccncc2)CC1 (configuration not stated) and write its reported z-score.
A: 0.184

Q: Output measured z-score for this item: CCCCCCCCCCCCCCCCn1cc[n+](Cc2ccccc2)c1C
A: -3.72

Q: Kindly indicate its recorded z-score. Item: CC(O)C1C(=O)N2C(C(=O)O)=C(SC3CNC(C(=O)N(C)C)C3)C(C)C12 (configuration not stated)
A: 0.361

Q: Please give the documented z-score of N#CCNC(=O)c1ccc(-c2ccnc(Nc3ccc(N4CCOCC4)cc3)n2)cc1
A: -1.38

Q: Name the recorded z-score of the item O=c1ncn2nc(Sc3ccc(F)cc3F)ccc2c1-c1c(Cl)cccc1Cl in your answer.
A: 1.18

Q: Tell me z-score reported for Nc1ccccc1NC(=O)c1ccc(CNc2nccc(-c3cccnc3)n2)cc1
A: -2.11

Q: State, in one line, measured z-score of C=CC(=O)Nc1cccc(Sc2nc(Nc3ccc(N4CCN(C)CC4)cc3)ncc2Cl)c1
A: 0.935

Q: Tell me measured z-score for Cc1ccc2nc(NC(=O)CSc3nc4c(c(=O)n3-c3ccccc3)SCC4)sc2c1 please.
A: -0.109

Q: Supply z-score value. Item: Cc1cc(Nc2cc(CN3CCOCC3)c3nc(C)c(Cc4ccc(Cl)cc4F)n3n2)n[nH]1
A: -1.27

Q: Could you please provide reported z-score for O=C(O)c1ccc(O)c2ncccc12 ? Thanks!
A: 0.0902

Q: State its z-score: CNCc1ccc(-c2cc(-c3nc(-c4ccc(S(=O)(=O)C(C)C)cc4)cnc3N)on2)cc1
A: -0.548

Q: Name the recorded z-score of the item Nc1nc(F)nc2c1ncn2C1OC(COP(=O)(O)O)C(O)C1O (configuration not stated) in your answer.
A: 0.326

Q: Given the compound CN(C)Cc1c(C(=O)NCCOc2ccc(C(=O)NO)cc2)oc2ccccc12 , write its reported z-score.
A: -1.7

Q: Note z-score for the compound shown: COc1cc2nccc(Oc3ccc(NC(=O)Nc4cc(C)on4)c(Cl)c3)c2cc1OC
A: 0.933

Q: Give z-score for COc1ccc(-c2nc(N3CCOCC3)c3sc(CN(C)c4ncc(C(=O)NO)cn4)cc3n2)cn1
A: -3.69

Q: // fetch z-score given entry OCc1ccc(-c2ccc(-c3ccc(CO)s3)o2)s1
A: 0.342

Q: Using known records, supply z-score for O=C(O)CCC1CCC(c2cc(F)ccc2F)(S(=O)(=O)c2ccc(Cl)cc2)CC1 (configuration not stated)
A: 0.781

Q: Report measured z-score; entry is CN1CCN(C2CCN(C(=O)Nc3cc(Oc4ccc(NC(=O)C5(C(=O)Nc6ccc(F)cc6)CC5)c(F)c4)ccn3)CC2)CC1
A: 0.282

Q: Report z-score for Cc1cc(CN2CCN(c3c(Br)cnc4nc(-c5ccc(N6CCN(C)CC6)cc5)[nH]c34)CC2)no1
A: -0.677

Q: Determine from records and report z-score for Cc1cnc(-c2cnc(NCCNc3ccc(C#N)cn3)nc2-c2ccc(Cl)cc2Cl)[nH]1
A: -0.0886

Q: Give the value of z-score reported for the following: O=C(Nc1ccc(OC(F)(F)F)cc1)c1sccc1NCc1ccnc2ccccc12
A: 0.766

Q: Please report the measured z-score for O=C(Nc1cccc(Nc2ncc(Br)c(NCCc3cnc[nH]3)n2)c1)N1CCCC1
A: 0.495

Q: For the compound Cc1c(Cn2c(C)nc3c(C(=O)O)cc(N4CCOCC4)cc32)cccc1C(F)(F)F , give its measured z-score value.
A: 0.912

Q: Fill in reported z-score for this entry: Cc1ccc2c(c1)C(=O)[C@]1(O)CCN(c3ccccc3)C1=N2
A: -2.56

Q: Indicate its recorded z-score; the compound in question is NC(=O)c1cc[n+](CC2=C(C(=O)O)N3C(=O)[C@@H](NC(=O)[C@@H](c4ccccc4)S(=O)(=O)[O-])[C@H]3SC2)cc1
A: -0.267

Q: For the compound CNC(=O)c1ccc(C)c(-n2c(C)cc(OCc3ccc(F)cc3F)c(Br)c2=O)c1 , give its measured z-score value.
A: -1.25

Q: Specify measured z-score for CC1(C)CC(=O)c2c(C(F)(F)F)nn(-c3ccc(C(N)=O)c(NC4CCC(O)CC4)c3)c2C1 (configuration not stated) .
A: -1.99

Q: Answer with the recorded z-score for the compound listed here: COc1c(C)cnc(Cn2cnc3c(Cl)nc(N)nc32)c1C
A: 0.0158

====

assay: growth inhibition, single agents and combos, LFS_MB_1R, cell-based, cisplatin or BGB combos, synergistic combos for chromothripsis tumors (AID 1671452); conditions: LFS_MB_1R medulloblastoma cells, at 0.5 µM, stronger effect = higher value;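 note: cells exposed for 96 hours before readout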
Answer each item with its documented inhibition.
Expressed in %, but write only the number.

Q: Supply recorded inhibition for CN(C)CCN1C(=O)c2cccc3cc(N)cc(c23)C1=O here.
A: -23

Q: Supply measured inhibition of CC(C)OC(=O)[C@H](C)N[P@](=O)(OC[C@H]1O[C@@H](n2ccc(=O)[nH]c2=O)[C@](C)(F)[C@@H]1O)Oc1ccccc1 in your reply.
A: -18.8

Q: Identify the reported inhibition for the following entry. CS(=O)(=O)c1ccc(-c2nnc(/C=C/c3nnc(-c4ccc(C#N)cc4)o3)n2-c2ccccc2Cl)nc1
A: -3.64

Q: Give me measured inhibition, please, for this compound: CN[C@@H]1CN(c2ccc3c(=O)c(C(=O)O)cn(-c4nccs4)c3n2)C[C@H]1OC
A: 3.38

Q: Return the recorded inhibition value; entry: COc1cc2ncnc(-n3nc(-c4ccccn4)nc3N)c2cc1OC
A: -45.7

Q: Please look at this compound and report its inhibition: O=c1cc(N2CCOCC2)oc2c1ccc1ccccc12
A: -3.28

====

experiment: JHH-DIPG-1 glioma cell viability, MIPE5.0 library, CellTiter-Glo luminescence, qHTS (AID 1347067); settings: JHH-DIPG-1 glioma viability, CellTiter-Glo ATP luminescence;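 note: cells exposed to compound for 48 hours before readout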
Records with an inconclusive call do not appear. The source made the active and inactive calls. Cut-off not given; nearly all actives show AC50 up to about 26 µM.
assay_metric: outcome

> print(dat)
                         chemical.structure  assay.metric  obs.value
1  COC(=O)N(C)c1c(N)nc(-c2nn(Cc3ccccc3F)c3ncccc23)nc1N       outcome   inactive
2       Clc1ccc2ncc(-c3cccc(NC4CNC4)n3)n2c1       outcome   inactive
3  O=C(CN1C(=O)C2(CCCC2)NC[C@H]1c1cc(F)cc(F)c1)Nc1ccc2c(c1)C[C@@]1(C2)C(=O)Nc2ncccc21       outcome   inactive
